Data credit: patent US20220144922A1

The following binders are listed with their measured pKd values.
target-desc: T1, prefusion-stabilized RSV F ectodomain (DS-Cav1), subtype B (respiratory syncytial virus subtype B)
T1 construct: extracellular domain; also called Prefusion subtype B
experimental-details: BLI, IgG on sensor
pKd: −log10 of the molar value.
endpoint: pKd

INSERT INTO measurements (binder, endpoint, value) VALUES
  ('ADI-15659 (antibody, V domains shown, IgG; also called Antibody Number 223) VH: QVQLVQSGAEVKKPGSSVKVSCKASGGTFSTYGISWVRQAPGQGLEWMGRVIPMFGTATYAQKFQDRVTITADKATSTAYMELNSLRSDDTAVYYCARCPPFEGVRPPWFDPWGQGTLVTVSS VL: SYELTQPPSVSVAPGRTAKITCGGYNIGNKRVHWYRQRPGQAPVLIVYDNADRPSGIPERFSGSNSGNTATLTISNVAAGDEADYHCQVWETSSDHPVFGGGTKLTVL', 'pKd', 7.96),
  ('ADI-15574 (antibody, V domains shown, IgG; also called Antibody Number 144) VH: QVQLVQSGGGLVKPGGSLRLSCAASGFTISGYNMFWVRQPPGKGLEWVSSITAGSSYLNYADSVKGRFIVSRDNAKNSLYLQMNSLRAEDTAVYFCARAPLLPAMMDLWGQGTTVTVSS VL: QSVLTQPPSVSGAPGQRVTISCTGSSSNIGAGYDVHWYQQLPGTAPKLLIYTNNNRPSGVPDRFSGSKSGTSASLAITGLQAEDEADYYCQSYDRSLNGYVFGTGTKLTVL', 'pKd', 9.34);
